The measurements presented in this section are drawn from the supplement of paper PMC13380429.

test system: Vero E6; experiment: cell viability relative to DMSO; higher = less toxic; conditions: 72 h; 1000 nM

- SMILES STRUCTURE: "CN(C)CCNc1nc2cc(O)ccc2c2c1C(=O)c1ccccc1-2"
  MEASURED TARGET: "Vero E6"
  cell viability, %: 40
- SMILES STRUCTURE: "c1ccc(-c2ccc(CNc3nc(-c4ccccn4)nnc3-c3ccccc3)cc2)cc1"
  MEASURED TARGET: "Vero E6"
  cell viability, %: 9.5
- SMILES STRUCTURE: "CCOc1ccc(NC(=S)N2CCC(C(O)(c3ccccc3)c3ccccc3)CC2)cc1"
  MEASURED TARGET: "Vero E6"
  cell viability, %: 99.8
- SMILES STRUCTURE: "CC(C)(Sc1cc(C(C)(C)C)c(O)c(C(C)(C)C)c1)Sc1cc(C(C)(C)C)c(O)c(C(C)(C)C)c1"
  MEASURED TARGET: "Vero E6"
  cell viability, %: 98.1
- SMILES STRUCTURE: "CC(=O)Oc1ccccc1C(=O)Oc1cccc(CO[N+](=O)[O-])c1"
  MEASURED TARGET: "Vero E6"
  cell viability, %: 89.7
- SMILES STRUCTURE: "O[C@H]1[C@H](O)[C@@H](O)[C@H](O)[C@@H](O)[C@H]1O"
  MEASURED TARGET: "Vero E6"
  cell viability, %: 99.4
- SMILES STRUCTURE: "OC(c1ccccc1)(c1ccccc1)C12CC[N+](CCOCc3ccccc3)(CC1)CC2"
  MEASURED TARGET: "Vero E6"
  cell viability, %: 96.2
- SMILES STRUCTURE: "Cc1ccc(C(=O)N(CCCN)[C@@H](c2nc3cc(Cl)ccc3c(=O)n2Cc2ccccc2)C(C)C)cc1"
  MEASURED TARGET: "Vero E6"
  cell viability, %: 40.8

###

tested on: Vero E6; test: cell viability relative to DMSO; higher = less toxic; details: 72 h; 1000 nM
Here, each record is paired with measured cell viability data.

- COMPOUND: "CC(=O)Nc1ccc(C(=O)Nc2ccccc2N)cc1"
  MEASURED TARGET: "Vero E6"
  cell viability, %: 92.8
- COMPOUND: "Cc1nc2c(O)cccc2c(=O)[nH]1"
  MEASURED TARGET: "Vero E6"
  cell viability, %: 100
- COMPOUND: "COc1ccc(-c2cnc3c(-c4cccc5ncccc45)cnn3c2)cc1"
  MEASURED TARGET: "Vero E6"
  cell viability, %: 99.3
- COMPOUND: "COC(=O)C[C@](O)(CCCC(C)(C)O)C(=O)O[C@@H]1C(OC)=C[C@]23CCCN2CCc2cc4c(cc2[C@H]13)OCO4"
  MEASURED TARGET: "Vero E6"
  cell viability, %: 12.8
- COMPOUND: "CC(C)NC(=O)c1ccc(C#Cc2ccncc2)cn1"
  MEASURED TARGET: "Vero E6"
  cell viability, %: 94.5
- COMPOUND: "COc1ccc(CCc2nc3cc(-c4c(C)noc4C)ccc3n2C[C@H](C)N2CCOCC2)cc1Cl"
  MEASURED TARGET: "Vero E6"
  cell viability, %: 94.5
- COMPOUND: "CC(C)c1cnn2c(NCc3ccccc3)cc(NCCCCCCN)nc12"
  MEASURED TARGET: "Vero E6"
  cell viability, %: 94.6
- COMPOUND: "COc1ccc(CCN2CCN(CCCc3ccccc3)CC2)cc1OC"
  MEASURED TARGET: "Vero E6"
  cell viability, %: 96.2
- COMPOUND: "CNCCc1ccc(O)c(O)c1 [deoxyepinephrine]"
  MEASURED TARGET: "Vero E6"
  cell viability, %: 101

###

test system: Calu-3; test: cell viability relative to DMSO; higher = less toxic; conditions: 72 h; 100 nM
Here, each record is paired with measured cell viability data.
MEASURED PROPERTY: cell viability (%)

- COMPOUND: "CC(=O)C1=C(O)[C@@H]2[C@H]3c4c[nH]c5cccc(c45)C[C@H]3C(C)(C)N2C1=O"
  UNIT STRING: "%"
  EXPERIMENTAL RESULT: 102
- COMPOUND: "O=C(O)C[C@H]1CC[C@H](c2ccc(-c3ccc(Nc4ccc(C(F)(F)F)nc4)cn3)cc2)CC1"
  UNIT STRING: "%"
  EXPERIMENTAL RESULT: 95
- COMPOUND: "N#Cc1cc(CN2CCC(Nc3ncnc4sc(Cl)cc34)CC2)ccc1F"
  UNIT STRING: "%"
  EXPERIMENTAL RESULT: 103
- COMPOUND: "O=C(Nc1cc(-c2ccccc2)nn1-c1ccccc1F)c1ccc([N+](=O)[O-])cc1"
  UNIT STRING: "%"
  EXPERIMENTAL RESULT: 92.9
- COMPOUND: "CNC(=O)CN(CCN(CCN(CC(=O)[O-])CC(=O)NC)CC(=O)[O-])CC(=O)[O-].[Gd+3] [gadodiamide]"
  UNIT STRING: "%"
  EXPERIMENTAL RESULT: 105
- COMPOUND: "COc1ccc(CCc2nc3cc(-c4c(C)noc4C)ccc3n2C[C@H](C)N2CCOCC2)cc1Cl"
  UNIT STRING: "%"
  EXPERIMENTAL RESULT: 88.3
- COMPOUND: "Fc1ccc(C(OCCN2CCN(C/C=C/c3ccccc3)CC2)c2ccc(F)cc2)cc1"
  UNIT STRING: "%"
  EXPERIMENTAL RESULT: 110
- COMPOUND: "Nc1nnc(Sc2ncc([N+](=O)[O-])s2)s1"
  UNIT STRING: "%"
  EXPERIMENTAL RESULT: 99.2
- COMPOUND: "c1ccc(N2CCN(CCCOc3ccc4c(c3)OCO4)CC2)cc1"
  UNIT STRING: "%"
  EXPERIMENTAL RESULT: 99.5
- COMPOUND: "Cc1c(C)c2c(c(C)c1O)CCC(C)(COc1ccc(CC3SC(=O)NC3=O)cc1)O2 (stereo unspecified)"
  UNIT STRING: "%"
  EXPERIMENTAL RESULT: 110
- COMPOUND: "Nc1nc2c(cnn2CCc2ccccc2)c2nc(-c3ccco3)nn12"
  UNIT STRING: "%"
  EXPERIMENTAL RESULT: 95.7
- COMPOUND: "CCOC(=O)N1c2ccc(C(F)(F)F)cc2[C@@H](N(Cc2cc(C(F)(F)F)cc(C(F)(F)F)c2)C(=O)OC)C[C@H]1CC"
  UNIT STRING: "%"
  EXPERIMENTAL RESULT: 98.4
- COMPOUND: "CCCCC1(COC(=O)CCC(=O)O)C(=O)N(c2ccccc2)N(c2ccccc2)C1=O"
  UNIT STRING: "%"
  EXPERIMENTAL RESULT: 95.2
- COMPOUND: "CC1(CN)Cc2ccccc2C1"
  UNIT STRING: "%"
  EXPERIMENTAL RESULT: 95.4
- COMPOUND: "O=C(O)CCc1cc(I)c(Oc2ccc(O)cc2)c(I)c1"
  UNIT STRING: "%"
  EXPERIMENTAL RESULT: 94.5
- COMPOUND: "CC(C)(C)C(=O)/C(=N/c1ccc(Cl)cc1)NNc1ccc(Cl)cc1"
  UNIT STRING: "%"
  EXPERIMENTAL RESULT: 98.8

###

test system: Calu-3; experiment: cell viability relative to DMSO; higher = less toxic; settings: 72 h; 10000 nM
Here, each record is paired with measured cell viability data.

- COMPOUND: "CCOC(=O)N1c2ccc(C(F)(F)F)cc2[C@@H](N(Cc2cc(C(F)(F)F)cc(C(F)(F)F)c2)C(=O)OC)C[C@H]1CC"
  UNIT STRING: "%"
  cell viability: 69
- COMPOUND: "C[C@H]1CN(C[C@H](Cc2ccccc2)C(=O)NCC(=O)O)CC[C@@]1(C)c1cccc(O)c1"
  UNIT STRING: "%"
  cell viability: 104
- COMPOUND: "Cc1c(C)c2c(c(C)c1O)CCC(C)(COc1ccc(CC3SC(=O)NC3=O)cc1)O2 (stereo unspecified)"
  UNIT STRING: "%"
  cell viability: 108
- COMPOUND: "CC1(CN)Cc2ccccc2C1"
  UNIT STRING: "%"
  cell viability: 96.9
- COMPOUND: "CCOC(=O)Nc1ccc(NCc2ccc(F)cc2)nc1N"
  UNIT STRING: "%"
  cell viability: 91.3
- COMPOUND: "C[C@@H]1NC(=O)[C@@H](N)CNC(=O)[C@H](C2CCNC(=N)N2)NC(=O)/C(=C/NC(N)=O)NC(=O)[C@H](CNC(=O)CC(N)CCCN)NC1=O.N=C1NCC[C@H]([C@@H]2NC(=O)/C(=C/NC(N)=O)NC(=O)[C@H](CNC(=O)C[C@@H](N)CCCN)NC(=O)[C@H](CO)NC(=O)[C@@H](N)CNC2=O)N1"
  UNIT STRING: "%"
  cell viability: 108
- COMPOUND: "CO/N=C(\\C(=O)N[C@@H]1C(=O)N2C(C(=O)[O-])=C(C[n+]3ccn4ncccc43)CS[C@H]12)c1nsc(N)n1"
  UNIT STRING: "%"
  cell viability: 118
- COMPOUND: "COc1ccc(CCN2CCN(CCCc3ccccc3)CC2)cc1OC"
  UNIT STRING: "%"
  cell viability: 96.8
- COMPOUND: "Cl/C(=C\\n1cncn1)c1ccc(Cl)cc1Cl"
  UNIT STRING: "%"
  cell viability: 97.6
- COMPOUND: "CCOc1ccc(NC(=S)N2CCC(C(O)(c3ccccc3)c3ccccc3)CC2)cc1"
  UNIT STRING: "%"
  cell viability: 96.5
- COMPOUND: "O=C(c1ccc(F)c(F)c1Nc1ccc(I)cc1F)N1CC(O)([C@@H]2CCCCN2)C1"
  UNIT STRING: "%"
  cell viability: 32.7
- COMPOUND: "CCn1c2ccccc2c2cc(CNC)ccc21"
  UNIT STRING: "%"
  cell viability: 103
- COMPOUND: "OCc1ccc(-c2ccc(-c3ccc(CO)s3)o2)s1"
  UNIT STRING: "%"
  cell viability: 106
- COMPOUND: "O=C1c2ccccc2C(Cc2ccncc2)(Cc2ccncc2)c2ccccc21"
  UNIT STRING: "%"
  cell viability: 99.8
- COMPOUND: "Cc1nc2c(O)cccc2c(=O)[nH]1"
  UNIT STRING: "%"
  cell viability: 99.8
- COMPOUND: "CCOC(=O)C1=C(C)NC(c2ccccc2)=C(C(=O)OCc2ccc([N+](=O)[O-])cc2)[C@@H]1C#Cc1ccccc1"
  UNIT STRING: "%"
  cell viability: 98
